Recorded aSMase-activity 20 μM MW, one value per entry.
Biological target: acidic sphingomyelinase (aSMase) (Homo sapiens)
Construct: endogenous in cells; host or cells: HT 29 (human adenocarcinoma cell line)
Sequence (P17405 47-631): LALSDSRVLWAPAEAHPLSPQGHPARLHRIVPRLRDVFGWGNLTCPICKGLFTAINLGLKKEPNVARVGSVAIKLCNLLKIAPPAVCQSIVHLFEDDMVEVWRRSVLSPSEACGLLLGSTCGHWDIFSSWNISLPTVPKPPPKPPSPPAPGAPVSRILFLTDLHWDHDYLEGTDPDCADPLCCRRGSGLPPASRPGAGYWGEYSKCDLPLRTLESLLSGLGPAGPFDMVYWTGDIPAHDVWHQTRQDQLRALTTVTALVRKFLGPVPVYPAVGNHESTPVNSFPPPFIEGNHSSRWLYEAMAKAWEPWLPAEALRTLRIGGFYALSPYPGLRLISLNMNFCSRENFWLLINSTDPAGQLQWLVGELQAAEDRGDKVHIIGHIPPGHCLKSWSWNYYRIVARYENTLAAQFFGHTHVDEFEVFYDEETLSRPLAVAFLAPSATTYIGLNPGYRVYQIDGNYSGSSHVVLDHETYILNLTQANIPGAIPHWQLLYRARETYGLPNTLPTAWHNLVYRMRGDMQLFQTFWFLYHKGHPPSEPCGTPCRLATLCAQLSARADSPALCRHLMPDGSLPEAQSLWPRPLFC
Experiment: SMase activity determination (activation of aSMase in cells, NBD-sphingomyelin hydrolysis)
Type: cell-based
Conditions: 20 μM; HT 29 cells; mean (MW); basal activity 278,4 ± 41,3; unit only printed

* CCCCCC(=O)N[C@@H](CO)[C@@H](O)c1ccc([N+](=O)[O-])cc1 | 631,0 pmolµg^-1min^-1

For CC(C)(C)OC(=O)N1[C@H]([C@H](O)C2=CCCC2)COC1(C)C , what is its reported aSMase-activity 20 μM MW?
812,7 pmolµg^-1min^-1
